Tested on: zebrafish neuromast hair cells
Assay: Zebrafish neuromast hair cell protection assay
Conditions: 200 μM neomycin
METRIC: protective activity (in words)

Recorded protective activity (in words), per entry:
[[record]]
mol_smiles = "CCN1CCc2c(sc(NC=O)c2C(N)=O)C1.Cl"
experimental_system = "zebrafish neuromast hair cells"
reported_result = "no protective activity"

[[record]]
mol_smiles = "CCN1CCc2c(sc(NC(=O)C3(c4ccc(Cl)cc4)CC3)c2C(N)=O)C1.Cl"
experimental_system = "zebrafish neuromast hair cells"
reported_result = "no protective activity"

[[record]]
mol_smiles = "CCN1CCc2c(sc(NC(=O)Nc3ccccc3)c2C(N)=O)C1.Cl"
experimental_system = "zebrafish neuromast hair cells"
reported_result = "inactive"

[[record]]
mol_smiles = "CCN1CCc2c(sc(NC(=O)CN3CCCCC3)c2C(N)=O)C1"
experimental_system = "zebrafish neuromast hair cells"
reported_result = "no protective activity"

[[record]]
mol_smiles = "CCN1CCc2c(sc(NC(=O)Nc3ccc(Cl)cc3)c2C(=O)c2nnco2)C1.Cl"
experimental_system = "zebrafish neuromast hair cells"
reported_result = "inactive"


Entry CCN1CCc2c(sc(NC(=O)NCc3cccc(Cl)c3)c2C(N)=O)C1.Cl under zebrafish neuromast hair cells had protective activity (in words) of inactive

Entry CC(C)(C)OC(=O)N1CCc2c(sc(NC(=O)Nc3ccc(Cl)cc3)c2C(N)=O)C1 under zebrafish neuromast hair cells had protective activity (in words) of completely suppressed

Entry CC(C)(C)OC(=O)CN1CCc2c(sc(NC(=O)Nc3ccc(Cl)cc3)c2C(N)=O)C1 under zebrafish neuromast hair cells had protective activity (in words) of completely suppressed

Entry CCN1CCc2c(sc(NC(=O)NCCN3CCOCC3)c2C(N)=O)C1 under zebrafish neuromast hair cells had protective activity (in words) of inactive

----------
Assay: Preliminary i.v. toxicity and plasma half-life in rats
Assay type: in vivo, rat
Details: rat, plasma, iv, 25 mg/kg
METRIC: half-life (h)
Response body: numeric value in h, unit text excluded.

Short answer for CCN1CCc2c(sc(NC(=O)Nc3ccc(Cl)cc3)c2C(N)=O)C1.Cl [compound 1] : half-life was 1.7

----------
Test system: zebrafish neuromast hair cells
Experiment: Zebrafish neuromast hair cell protection assay
Settings: 200 μM neomycin
METRIC: protective activity (in words)

[[record]]
compound = "CCN1CCc2c(sc(NC(=O)NCC3CCCO3)c2C(N)=O)C1 (stereo not shown) [compound 12]"
experimental_system = "zebrafish neuromast hair cells"
metric = "protective activity (in words)"
reported_result = "inactive"

[[record]]
compound = "CCN1CCc2c(sc(NC(=O)Nc3ccc(Cl)cc3)c2C(=O)c2nc(C)no2)C1.Cl [compound 21]"
experimental_system = "zebrafish neuromast hair cells"
metric = "protective activity (in words)"
reported_result = "inactive"

[[record]]
compound = "CCN1CCc2c(sc(NC(=O)c3ccccc3)c2C(N)=O)C1.Cl [compound 32]"
experimental_system = "zebrafish neuromast hair cells"
metric = "protective activity (in words)"
reported_result = "no protective activity"

[[record]]
compound = "CCN1CCc2c(sc(NC(=O)Nc3cscc3C(=O)OC)c2C(N)=O)C1 [compound 15]"
experimental_system = "zebrafish neuromast hair cells"
metric = "protective activity (in words)"
reported_result = "inactive"


Here is the next item to consider.
Short answer for CCN1CCc2c(sc(NC(=O)[C@@H]3CCCN3)c2C(N)=O)C1 [compound 30] : protective activity (in words) was no protective activity
